Origin of measurements: ChEMBL document CHEMBL4041491

molecular target: Adenosine receptor A2a (Homo sapiens); test: Displacement of [3H]ZM241385 from human adenosine A2A receptor expressed in CHO cell membranes at 1 uM after 60 mins by scintillation counting method relative to control
Sequence (P29274 whole entry): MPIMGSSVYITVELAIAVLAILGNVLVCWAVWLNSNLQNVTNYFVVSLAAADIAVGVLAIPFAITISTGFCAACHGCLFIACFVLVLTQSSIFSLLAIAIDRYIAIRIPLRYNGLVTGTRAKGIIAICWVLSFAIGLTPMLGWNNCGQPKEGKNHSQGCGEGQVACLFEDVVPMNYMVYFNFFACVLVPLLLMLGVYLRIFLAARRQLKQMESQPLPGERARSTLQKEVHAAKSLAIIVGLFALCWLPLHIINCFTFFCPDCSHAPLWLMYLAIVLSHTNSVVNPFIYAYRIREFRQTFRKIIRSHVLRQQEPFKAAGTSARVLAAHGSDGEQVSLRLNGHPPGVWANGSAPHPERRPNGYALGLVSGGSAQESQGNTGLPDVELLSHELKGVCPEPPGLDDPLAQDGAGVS
Measured Property: inhibition (%)

* COc1ccc(-c2cn3ccnc(NC(=O)c4ccccc4)c3n2)cc1 | 1
* O=C(Nc1nccn2cc(-c3ccccc3)nc12)c1ccccc1 | 1
* Nc1nc(Br)cn2cc(-c3ccccc3)nc12 | 18

* * *

target: Adenosine receptor A3 (Homo sapiens, UniProt P0DMS8); experiment: Displacement of [125I]AB-MECA from human adenosine A3 receptor expressed in CHO cell membranes at 1 uM after 120 mins by scintillation counting method relative to control
Sequence (P0DMS8 whole entry, looked up): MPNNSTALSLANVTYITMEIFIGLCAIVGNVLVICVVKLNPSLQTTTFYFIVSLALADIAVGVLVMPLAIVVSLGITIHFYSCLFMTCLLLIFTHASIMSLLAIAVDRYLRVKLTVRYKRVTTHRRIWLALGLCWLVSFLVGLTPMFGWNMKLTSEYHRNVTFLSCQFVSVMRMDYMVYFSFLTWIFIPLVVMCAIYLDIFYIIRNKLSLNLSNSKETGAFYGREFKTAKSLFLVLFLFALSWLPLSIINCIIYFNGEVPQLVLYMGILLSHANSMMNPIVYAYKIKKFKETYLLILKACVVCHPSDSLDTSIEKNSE
Measured Property: inhibition (%)

• Cc1ccc(C(=O)Nc2nccn3cc(-c4ccccc4)nc23)cc1 = 45
• O=C(Nc1ccccc1)Nc1nccn2cc(-c3ccccc3)nc12 = 6
• O=C(c1ccc(F)cc1)N(C(=O)c1ccc(F)cc1)c1nc(-c2ccccc2)cn2cc(-c3ccccc3)nc12 = 31
• Nc1nc(-c2ccccc2)cn2cc(-c3ccccc3)nc12 = 23
• Nc1nc(-c2ccco2)cn2cc(-c3ccccc3)nc12 = 20
• O=C(Nc1nccn2cc(-c3ccco3)nc12)c1ccccc1 = 22
• COc1ccc(-c2cn3cc(-c4ccccc4)nc(N)c3n2)cc1 = 27
